Numbers sourced from patent US20030228371A1.

system-under-test: T1, human angiotensin AT2 receptor (human, UniProt P50052 1-363)
T1 sequence (looked up): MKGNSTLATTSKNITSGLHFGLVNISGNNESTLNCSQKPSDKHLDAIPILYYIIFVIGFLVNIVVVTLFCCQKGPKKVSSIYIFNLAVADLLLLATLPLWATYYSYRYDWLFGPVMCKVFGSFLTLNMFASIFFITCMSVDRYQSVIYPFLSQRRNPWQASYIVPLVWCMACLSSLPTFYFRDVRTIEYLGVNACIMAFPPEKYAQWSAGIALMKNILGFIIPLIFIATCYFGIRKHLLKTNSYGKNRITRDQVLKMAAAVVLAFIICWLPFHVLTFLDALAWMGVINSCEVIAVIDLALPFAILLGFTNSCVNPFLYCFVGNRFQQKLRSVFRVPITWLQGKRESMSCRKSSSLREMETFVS
experimental-details: [125I]CGP-42112A binding to membranes of HeLa cells expressing human AT2 receptor
* marks the point of attachment. Nicotinoyl = O=C(c1cccnc1)*
observable: pKd
pKd is a log-scale quantity: -log10 of the concentration expressed in molar.

GET /value?item= Nicotinoyl-YKHPI-OH (not fully specified (residue 2), Modified peptide ligand of the AT2 receptor and radioligand of the assay; also called CPG42112A) [CGP-42112A] &field=pKd returns 10.92
